Molecular target: SMARCA4 (Homo sapiens)
Sequence (P51532 whole entry): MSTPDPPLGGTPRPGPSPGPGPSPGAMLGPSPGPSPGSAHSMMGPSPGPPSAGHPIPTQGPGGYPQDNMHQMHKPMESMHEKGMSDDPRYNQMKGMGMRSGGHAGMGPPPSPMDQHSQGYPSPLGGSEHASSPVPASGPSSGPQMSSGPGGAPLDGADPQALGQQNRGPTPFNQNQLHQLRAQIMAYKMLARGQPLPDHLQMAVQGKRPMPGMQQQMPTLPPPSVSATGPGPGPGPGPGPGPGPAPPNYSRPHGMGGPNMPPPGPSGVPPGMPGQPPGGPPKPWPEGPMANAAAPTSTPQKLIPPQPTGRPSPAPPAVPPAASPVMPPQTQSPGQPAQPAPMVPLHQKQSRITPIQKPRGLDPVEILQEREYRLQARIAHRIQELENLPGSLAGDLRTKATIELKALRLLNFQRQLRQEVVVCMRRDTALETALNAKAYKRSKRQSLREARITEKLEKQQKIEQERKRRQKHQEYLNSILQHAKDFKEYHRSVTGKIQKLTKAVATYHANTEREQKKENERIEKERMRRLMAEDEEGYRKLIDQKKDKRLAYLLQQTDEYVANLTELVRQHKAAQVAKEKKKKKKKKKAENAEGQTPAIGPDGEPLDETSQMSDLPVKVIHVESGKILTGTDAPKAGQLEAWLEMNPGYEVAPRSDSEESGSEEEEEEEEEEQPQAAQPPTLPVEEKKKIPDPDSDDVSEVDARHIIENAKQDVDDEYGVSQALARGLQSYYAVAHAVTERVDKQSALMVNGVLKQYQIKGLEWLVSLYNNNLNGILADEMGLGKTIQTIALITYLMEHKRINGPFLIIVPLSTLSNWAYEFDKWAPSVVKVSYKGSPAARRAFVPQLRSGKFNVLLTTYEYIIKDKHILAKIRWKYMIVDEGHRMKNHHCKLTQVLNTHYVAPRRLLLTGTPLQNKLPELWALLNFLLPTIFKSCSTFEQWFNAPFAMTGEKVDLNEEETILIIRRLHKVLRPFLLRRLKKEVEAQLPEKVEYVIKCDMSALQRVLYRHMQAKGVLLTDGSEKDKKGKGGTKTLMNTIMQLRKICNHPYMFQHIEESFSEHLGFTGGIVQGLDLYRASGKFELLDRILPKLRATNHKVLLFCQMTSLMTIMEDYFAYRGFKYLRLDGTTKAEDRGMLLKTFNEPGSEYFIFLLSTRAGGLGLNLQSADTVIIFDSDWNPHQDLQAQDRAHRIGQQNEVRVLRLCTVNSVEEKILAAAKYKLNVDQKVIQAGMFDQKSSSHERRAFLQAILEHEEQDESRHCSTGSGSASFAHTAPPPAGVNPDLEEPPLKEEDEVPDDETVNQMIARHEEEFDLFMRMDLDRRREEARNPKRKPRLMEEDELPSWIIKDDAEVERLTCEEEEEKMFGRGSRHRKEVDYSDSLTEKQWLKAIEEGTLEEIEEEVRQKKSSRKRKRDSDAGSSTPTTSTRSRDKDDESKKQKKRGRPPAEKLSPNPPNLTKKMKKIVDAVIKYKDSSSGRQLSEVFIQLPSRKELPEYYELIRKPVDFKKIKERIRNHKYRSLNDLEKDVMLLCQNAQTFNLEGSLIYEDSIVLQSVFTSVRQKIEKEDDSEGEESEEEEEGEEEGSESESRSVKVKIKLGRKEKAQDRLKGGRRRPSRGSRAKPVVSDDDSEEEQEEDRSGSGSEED
Assay: HiBiT assay for protein degradation, Hela SMARCA4-HiBiT cells (A series)
Type: cell-based
Parameters: fuse HiBiT to the carboxy terminus of SMARCA2 (Promega CS302365) or SMARCA4 (Promega CS3023225); host or cells: HeLa (CRISPR/Cas9 HiBiT knock-in)
Conditions: Hela SMARCA4-HiBiT cells, 24 hours treatment
Readout type: SMARC A4 Hela HiBit Dmax(%)

| Substance smiles | Readout type | Experimental result |
| --- | --- | --- |
| Cc1ncsc1-c1ccc([C@H](C)NC(=O)[C@@H]2C[C@@H](O)CN2C(=O)[C@@H](n2cc([C@H]3C[C@H](CN4CCC(c5ccc6c(c5)C5(CCCCC5)c5nc(=O)c7c(Br)cccc7n5-6)CC4)C3)nn2)C(C)(C)C)cc1 | SMARC A4 Hela HiBit Dmax(%) | A (A (>90% degradation)) |
| Cc1ncsc1-c1ccc([C@H](CN2CCOCC2)NC(=O)[C@@H]2C[C@@H](O)CN2C(=O)[C@@H](NC(=O)C23CCC(CN4CCC(c5ccc6c(c5)C5(CCCCC5)c5nc(=O)c7c(Br)cccc7n5-6)CC4)(CC2)C3)C(C)(C)C)cc1 | SMARC A4 Hela HiBit Dmax(%) | A (A (>90% degradation)) |
| Cc1ncsc1-c1ccc([C@H](C)NC(=O)[C@@H]2C[C@@H](O)CN2C(=O)[C@@H](n2cc(C3(CCN4CCC(c5ccc6c(c5)-n5c(nc(=O)c7c(Br)cccc75)C65CCCCC5)CC4)CC3)nn2)C(C)(C)C)cc1 | SMARC A4 Hela HiBit Dmax(%) | A (A (>90% degradation)) |
